Attribute: shrunken log2 fold change
- Tested on: Escherichia coli TOP10;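 note: peptides expressed intracellularly from a pBAD plasmid library in pooled LB shake-flask culture, induced with 0.3% L-arabinose, DNA abundance read by NGS, three biological replicates, DESeq2 with apeglm shrinkage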
- experimental_protocol: shrunken log2 fold change of peptide-encoding DNA abundance (4.5 h post-induction vs induction); higher = less antimicrobial activity (less host growth inhibition)
- experimental_parameters: time post-induction: 4.5 h; library: site-saturation at positions 5, 18, 19, 20

[
  {
    "sequence_data": "RRIRSRPPRLPRPRPRPEKNPRP",
    "assay_target": "Escherichia coli TOP10",
    "shrunken log2 fold change": 0.312
  },
  {
    "sequence_data": "RRIRIRPPRLPRPRPRPPQMPRP",
    "assay_target": "Escherichia coli TOP10",
    "shrunken log2 fold change": -0.0135
  },
  {
    "sequence_data": "RRIRFRPPRLPRPRPRPAYIPRP",
    "assay_target": "Escherichia coli TOP10",
    "shrunken log2 fold change": -0.601
  },
  {
    "sequence_data": "RRIRKRPPRLPRPRPRPNDGPRP",
    "assay_target": "Escherichia coli TOP10",
    "shrunken log2 fold change": -0.0887
  },
  {
    "sequence_data": "RRIRVRPPRLPRPRPRPKWWPRP",
    "assay_target": "Escherichia coli TOP10",
    "shrunken log2 fold change": 0.0767
  },
  {
    "sequence_data": "RRIRERPPRLPRPRPRPGYWPRP",
    "assay_target": "Escherichia coli TOP10",
    "shrunken log2 fold change": -0.0572
  },
  {
    "sequence_data": "RRIRFRPPRLPRPRPRPSLLPRP",
    "assay_target": "Escherichia coli TOP10",
    "shrunken log2 fold change": -0.311
  },
  {
    "sequence_data": "RRIRMRPPRLPRPRPRPCLNPRP",
    "assay_target": "Escherichia coli TOP10",
    "shrunken log2 fold change": -0.0184
  },
  {
    "sequence_data": "RRIRVRPPRLPRPRPRPRTDPRP",
    "assay_target": "Escherichia coli TOP10",
    "shrunken log2 fold change": -0.191
  }
]
